- test_system: human CB2 receptor (hCB2) (Homo sapiens)
- Sequence (P34972 whole entry): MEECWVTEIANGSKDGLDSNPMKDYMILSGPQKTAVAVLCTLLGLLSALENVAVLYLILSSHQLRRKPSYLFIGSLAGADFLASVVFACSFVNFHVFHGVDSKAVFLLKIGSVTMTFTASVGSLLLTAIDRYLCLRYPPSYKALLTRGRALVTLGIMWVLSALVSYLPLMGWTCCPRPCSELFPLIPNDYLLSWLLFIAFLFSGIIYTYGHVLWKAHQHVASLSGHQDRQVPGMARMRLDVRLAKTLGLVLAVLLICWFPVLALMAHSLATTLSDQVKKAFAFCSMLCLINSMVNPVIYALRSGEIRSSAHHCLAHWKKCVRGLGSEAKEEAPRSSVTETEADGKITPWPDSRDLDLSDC
- procedure_details: cell-based
- Assay type: cell-based
- condition_set: intracellular cAMP, CHO-K1 cells, NKH-477 prestimulated; + agonist, − inverse agonist
assay_readout: hCB2 EC50 range

// known answers, use as guide
CNC(=O)[C@@H](NC(=O)c1ccc2c(c1)N(S(=O)(=O)c1ccc(F)cc1)CCC(C)(C)S2)C(C)(C)C ... +D
Cc1ccc(C(=O)N2CCSc3ccc(C(=O)NCC(C)C)cc32)cc1 ... −E
O=S(=O)(c1ccc(C(F)(F)F)cc1)N1CCSc2ccc(-c3nnc(-c4ccccc4)o3)cc21 ... +C
O=C(NC12CC3CC(CC(C3)C1)C2)c1ccc2c(c1)N(C(=O)c1ccc(F)cc1)CCS2 ... −E
CCc1noc(-c2ccc3c(c2)N(S(=O)(=O)c2ccc(F)cc2)CCS3)n1 ... +B

Give its hCB2 EC50 range value. Item: "CN(C)C(=O)c1ccc2c(c1)N(S(=O)(=O)c1ccc(C(F)(F)F)cc1)CCS2"
+C

Give its hCB2 EC50 range value. Item: "CCC(=O)N1CCSc2ccc(C(=O)NC3CCCC3)cc21"
+E

Give its hCB2 EC50 range value. Item: "COCCCNC(=O)c1ccc2c(c1)N(C(=O)c1ccccc1)CCS2"
−E
